Measured values drawn from paper PMC11943675 for this set.

Target: human CYP1A1 (Homo sapiens, UniProt P04798)
Sequence (P04798 1-512): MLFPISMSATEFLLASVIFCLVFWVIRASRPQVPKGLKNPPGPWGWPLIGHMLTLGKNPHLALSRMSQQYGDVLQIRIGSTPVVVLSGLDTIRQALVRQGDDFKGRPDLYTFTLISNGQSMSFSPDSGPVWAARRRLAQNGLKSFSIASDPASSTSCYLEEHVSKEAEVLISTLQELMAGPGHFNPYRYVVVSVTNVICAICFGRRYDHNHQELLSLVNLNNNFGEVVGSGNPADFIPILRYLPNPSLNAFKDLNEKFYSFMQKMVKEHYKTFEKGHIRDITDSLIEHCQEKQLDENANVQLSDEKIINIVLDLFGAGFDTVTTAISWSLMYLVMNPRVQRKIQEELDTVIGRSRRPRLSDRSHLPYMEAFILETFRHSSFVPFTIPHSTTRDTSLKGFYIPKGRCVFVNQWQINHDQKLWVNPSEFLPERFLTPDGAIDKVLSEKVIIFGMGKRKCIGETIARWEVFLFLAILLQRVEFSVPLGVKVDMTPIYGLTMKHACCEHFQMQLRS

- Input smiles: "C=CCc1ccc2c(c1)OCO2"
  Ki (nM): 380
